Just for reference, PubChem BioAssay (NCI) is where these values come from.

Test system: HOP-92 NSCLC
Experiment: NCI tumour cell line growth inhibition, 48 h; in the data active = GI50 below about 0.43 µM; inactive = the rest
Return exactly one item of 1.0 = active, 0.0 = inactive

Look over these answered cases.
Cc1ccc(C(=O)Nc2ccc(Oc3cc4cnn(C)c4cc3-c3cn[nH]c3)c(F)c2)c(=O)n1-c1ccc(F)cc1
0.0
O=C(CCCCN1CCN(CCCCC(=O)Nc2ccccc2C#C/C=C\C#Cc2ccccc2C(F)(F)F)CC1)Nc1ccccc1C#C/C=C\C#Cc1ccccc1C(F)(F)F
0.0
CN(C)CCCOc1ccc(NC2=C(Cl)C(=O)C(Nc3ccc(OCCCN(C)C)cc3)=C(Cl)C2=O)cc1
0.0

Input line: Per the assay record, what outcome was assigned to Nc1nc(Cl)c2ncn(Cc3ccc(C45CC6CC(CC(C6)C4)C5)c(OCc4cc(F)c(F)cc4F)c3)c2n1 ?
Output line: 0.0

Input line: Follow-up entry: N#Cc1cc(F)cc(Oc2ccc(S(=O)(=O)C(F)F)c3c2CC(F)(F)[C@H]3O)c1
Output line: 0.0

Input line: Follow-up entry: O=C(Nc1ccc(-n2cc(-c3ccncc3)c(-c3ccc(Cl)c(O)c3)n2)cc1)c1cc(C(F)(F)F)cc(C(F)(F)F)c1
Output line: 0.0

Input line: Follow-up entry: O=C(Nc1nc2ccc(S(=O)(=O)Nc3ccc(C4(C(F)(F)F)CC4)cc3)cc2[nH]1)c1cnccn1
Output line: 0.0

Input line: Follow-up entry: O=c1[nH]c2ccccc2cc1-c1nnc(Cc2ccccc2)o1
Output line: 0.0

Input line: Follow-up entry: CN(C)C1C(=O)C(C(N)=O)=C(O)C2(O)C(=O)C3=C(O)c4c(O)cccc4C(C)(O)C3CC12.[Cl][Sb]([Cl])[Cl] (stereo not drawn)
Output line: 0.0

Input line: Follow-up entry: O=C(O)c1ccccc1NCn1nc(-c2ccccc2O)oc1=S
Output line: 0.0

Input line: Follow-up entry: CCc1ccc(Oc2c(-c3ccc(OCc4ccc(Cl)cc4)cc3O)nn(C)c2C(F)(F)F)cc1
Output line: 1.0

Input line: Follow-up entry: COc1cccc(-c2cc(=O)c3cc(N4CCN(C)CC4)ccc3[nH]2)c1
Output line: 0.0

Input line: Follow-up entry: CCOC(=O)c1cc(C(=O)c2ccc(OC)c(OC)c2)n2c1ccc1ccc3cccnc3c12
Output line: 0.0

----------
System: MDA-MB-435
Assay: NCI tumour cell line growth inhibition, 48 h
EXPERIMENTAL ENDPOINT: TGI (µM)
Write down the numeric answer in µM and omit the unit.

Example entries begin here.
COC1=C(OC)C(=O)C(Cc2c(Cl)nc3sccn23)=C(C)C1=O
21.8
CCc1ccc(Oc2c(-c3ccc(OCc4ccc(Cl)cc4)cc3O)nn(C)c2C(F)(F)F)cc1
2.25
C/C(=N\NC(=S)N1CCC1)c1ccccn1
73.7
C/C(=N/NC(=S)Nc1ccc(C)cc1)c1ccccn1
15
C[C@]12CCc3nc(Nc4ccc(O)cc4)sc3C1=CC[C@@H]1[C@@H]2CC[C@]2(C)/C(=N/NC(N)=S)CC[C@@H]12
2.05

Input line: Report TGI for O=c1[nH]c2ccccc2cc1-c1nnc(Cc2ccccc2)o1 please.
Output line: 17.5

Input line: Follow-up entry: CCCC(O)[C@@]1(CC)CC(C)C(O)(C2(C)C[C@H](C)[C@@H](C(CC)C(=O)C(C)[C@@H](O)[C@H](C)C3OC(O)(C(CC)C(=O)O)[C@@H](C)C(O)C3CC)O2)O1 (stereo not given in full)
Output line: 1.2

Input line: Follow-up entry: O=C(Nc1nc2ccc(S(=O)(=O)Nc3ccc(C4(C(F)(F)F)CC4)cc3)cc2[nH]1)c1cnccn1
Output line: 1.4

Input line: Follow-up entry: O=C(CI)NC(=O)NC(=O)NCc1ccccc1
Output line: 11.7

Input line: Follow-up entry: O=C(CCCCN1CCN(CCCCC(=O)Nc2ccccc2C#C/C=C\C#Cc2ccccc2C(F)(F)F)CC1)Nc1ccccc1C#C/C=C\C#Cc1ccccc1C(F)(F)F
Output line: 22

----------
System: CCRF-CEM leukemia
Assay: NCI tumour cell line growth inhibition, 48 h; in the data active = GI50 below about 0.43 µM; inactive = the rest
Return exactly one item of T = active, F = inactive

Cc1ccc2ccc3c4ccccc4ccc3c2c1
F

Input line: Per the assay record, what outcome was assigned to O=c1[nH]c(=S)[nH]c(O)c1/C=C1\C=Nc2ccccc21 ?
Output line: F

Input line: Follow-up entry: CC(=O)Nc1cccc(C#Cc2cncnc2Nc2ccc(OCc3cccc(F)c3)c(Cl)c2)c1
Output line: F

Input line: Follow-up entry: S=C(Sc1ccc(Cl)cc1)Sc1ccc(Cl)cc1
Output line: T

----------
System: SNB-19 CNS
Test: NCI tumour cell line growth inhibition, 48 h
EXPERIMENTAL ENDPOINT: TGI

Example entries begin here.
COc1ccccc1/C=C(\NC(=O)c1ccccc1)c1nc2ccc(Cl)cc2[nH]1
> 100 µM
Cc1cccc2c1nc1n2C(=O)c2ccccc2-1
> 100 µM
C[C@]12CCc3nc(Nc4ccc(O)cc4)sc3C1=CC[C@@H]1[C@@H]2CC[C@]2(C)/C(=N/NC(N)=S)CC[C@@H]12
2.94 µM
Cn1cc(-c2ccc3ncc(-c4ccc(CC(=O)Nc5cc(C(C)(C)C)nn5C)cc4)cc3c2)cn1
> 20 µM
C=CCOC(C)(C)C1=CCC(C)CC1 (configuration not stated)
> 100 µM

Input line: Report TGI for N#Cc1cc(F)cc(Oc2ccc(S(=O)(=O)C(F)F)c3c2CC(F)(F)[C@H]3O)c1 please.
Output line: > 100 µM

Input line: Follow-up entry: O=C(N/N=C/c1ccccc1)c1c(F)c(F)c(F)c(F)c1F
Output line: > 100 µM

Input line: Follow-up entry: Cc1nc2ccncc2[nH]1
Output line: > 100 µM

Input line: Follow-up entry: O=C1/C(=C\c2cccc(Oc3ccccc3)c2)SC(c2ccccc2)N1c1cc(Cl)ccc1Cl (configuration not stated)
Output line: > 100 µM

Input line: Follow-up entry: Cc1ccc(S(=O)(=O)NC(=O)Nc2ccc(C(=O)O)cc2)cc1
Output line: > 100 µM

Input line: Follow-up entry: CC(C)N(C(=O)C12C3C4C1C1C4(C#N)C3C12C(=O)O)C(C)C (configuration not stated)
Output line: > 100 µM

Input line: Follow-up entry: CN1C(c2ccccc2)CC(O)CC1c1ccccc1 (configuration not stated)
Output line: > 100 µM

Input line: Follow-up entry: OCc1ccc(-c2ccc(-c3ccc(CO)o3)o2)o1
Output line: > 100 µM

Input line: Follow-up entry: CN(C)CCNC(=O)Nc1ccc(N(C)c2ccnc(Nc3ccc(CS(C)(=O)=O)cc3)n2)cc1
Output line: > 25 µM

----------
System: M14 melanoma
Test: NCI tumour cell line growth inhibition, 48 h
Quick reference: TGI of the listed items.
Write down the numeric answer in µM and omit the unit.

O=C1c2ccccc2-c2c1c1ccccc1c(=O)n2CCCNCCNCCCn1c2c(c3ccccc3c1=O)C(=O)c1ccccc1-2
1.93
O=C(CCCCN1CCN(CCCCC(=O)Nc2ccccc2C#C/C=C\C#Cc2ccccc2C(F)(F)F)CC1)Nc1ccccc1C#C/C=C\C#Cc1ccccc1C(F)(F)F
25.9

Moving on to another compound below.
Input line: Report TGI for O=[N+]([O-])c1cccnc1S(=O)(=O)c1ccccc1 please.
Output line: 22.5

----------
System: MDA-N
Experiment: NCI tumour cell line growth inhibition, 48 h
EXPERIMENTAL ENDPOINT: TGI

Example entries begin here.
CC(C)(C)O/N=C/c1cc(NC(=S)c2ccccc2)ccc1Cl
29.9 µM
CC(=O)C1(C(=O)C(=[N+]=[N-])S(=O)(=O)c2ccccc2)CC1
> 100 µM
CC(C)(NO)/C(=N\O)c1ccccc1
> 10 µM
O=C(OCCN=c1c2ccccc2ccc2ccccc12)c1cc([N+](=O)[O-])cc([N+](=O)[O-])c1
> 100 µM
C/C(=N\NC(=S)NC(C)(C)C)c1nc2ncccc2[nH]1
> 100 µM
COCc1cc2c(s1)C(=O)C1=C(C2=O)C2(C=C(Br)C(=O)C(Br)=C2)CCN1
3.11 µM

Input line: Report TGI for O=C(O)CCCc1ccc2c(c1)C(C(=O)O)CC2 (stereo not drawn) please.
Output line: > 100 µM

Input line: Follow-up entry: Nc1c(C(=O)O)c2ccc([N+](=O)[O-])cc2c(=O)n1-c1nc2ccccc2s1
Output line: > 100 µM

----------
System: SK-MEL-5 melanoma
Assay: NCI tumour cell line growth inhibition, 48 h
EXPERIMENTAL ENDPOINT: log10 of TGI (log10 of the value in µM)
Recall that a logarithmic scale is used here: each number is log10 of TGI in µM.

COc1cccc2c(=O)oc(-c3ccccc3C)nc12
1.76
COC(=O)[C@H](C)NC(=O)[C@H](NS(=O)(=O)c1nc2ccccc2s1)c1ccccc1
1.61
CC1(C)N=C(/C(Cl)=[N+](/[O-])C(=O)c2ccc(Cl)cc2)C(C)(C)N1O
1.64
O=[N+]([O-])/C=C/c1ccc2ccccc2c1
1.12
COS(=O)c1cc(Cl)cc(Cl)c1OC(=O)CSSCC(=O)Oc1c(Cl)cc(Cl)cc1S(=O)OC (stereo unspecified)
1.51

Input line: Report log10 of TGI for CC(C)(C)O/N=C/c1cc(NC(=S)c2ccccc2)ccc1Cl please.
Output line: 1.62

Input line: Follow-up entry: S=C(Sc1ccc(Cl)cc1)Sc1ccc(Cl)cc1
Output line: 0.49

Input line: Follow-up entry: CCNC(=S)N/N=C(/C)c1cccc(/C(C)=N\NC(=S)NCC)n1
Output line: 0.74

Input line: Follow-up entry: C=C1C(=O)O[C@@H]2C[C@@]3(C)[C@H](O)CCC(=C)[C@@H]3C[C@H]12
Output line: 1.23

Input line: Follow-up entry: CCc1ccc(Oc2c(-c3ccc(OCc4ccc(Cl)cc4)cc3O)nn(C)c2C(F)(F)F)cc1
Output line: 0.39

Input line: Follow-up entry: Cc1nnc(SCc2nc(C#N)c(C#N)nc2CSc2nnc(C)s2)s1
Output line: 1.47
